Classes (logPo^PAMPA): class 0: < -3; class 1: ≥ -3 and < -0.4; class 2: ≥ -0.4

[[record]]
compound = "CC[C@]1(O)C[C@@H]2CN(CCc3c([nH]c4ccccc34)[C@@](C(=O)OC)(c3cc4c(cc3OC)N(C)[C@H]3[C@@](O)(C(=O)OC)[C@H](OC(C)=O)[C@]5(CC)C=CCN6CC[C@]43[C@@H]65)C2)C1"
assignedlabel = "class 1"

[[record]]
compound = "O=c1[nH]c2ccccc2n1CCCN1CCC(n2c(=O)[nH]c3cc(Cl)ccc32)CC1"
assignedlabel = "class 1"

[[record]]
compound = "Cc1cn([C@H]2C[C@H](N=[N+]=[N-])[C@@H](CO)O2)c(=O)[nH]c1=O"
assignedlabel = "class 0"

[[record]]
compound = "COc1ccc2c3c1O[C@H]1C[C@@H](O)C=C[C@@]31CCN(C)C2"
assignedlabel = "class 0"


## Task Band for Cc1nc2n(c(=O)c1CCN1CCC(c3noc4cc(F)ccc34)CC1)CCCC2 ?
## Result class 1

## Task Categorize the following entry: CCC(=O)C(CC(C)N(C)C)(c1ccccc1)c1ccccc1 (stereo not drawn)
## Result class 2
